- Test system: OVCAR-4 ovarian
- Experimental details: NCI-60 one-dose screen, 48 h
- Conditions: 10 µM unless noted
- Experimental: Growth inhibition of the OVCAR-4 human tumor cell line is measured as a screen for anti-cancer activity. Cells are grown in 96 well plates and exposed to the test compound for 48 hours. Compounds are tested at a single concentration, which is 10^-5 M for most compounds. The reported endpoint is percent growth (GI% or GIPRCNT), where numbers from 0 - 100% represent growth inhibition, and numbers from -100% - 0 represent cell death. For example, a value of 40 represents 60% growth inhibition. […]
Compounds without any hit were thinned out: in the full panel of roughly 83,000, 20% have a hit. The source made the active and inactive calls. The calls were made as follows: active = growth percent below 10; inactive = the rest.
Classes used: active, inactive

| Molecule | Assigned class |
| --- | --- |
| O=C(O)c1ccc(NCc2cn(-c3ccc(C(F)(F)F)cc3)nc2-c2ccc(C(=O)O)cc2)cc1 | inactive |
| COc1cc2nc(-c3ccc(Cl)cc3)cc(OCCCN3CCCCC3)c2cc1OC | inactive |
| C=C1C(=O)O[C@H]2[C@H]1CC/C(COC(=O)NCC(C)c1ccc(CC(C)C)cc1)=C\CC[C@@]1(C)O[C@@H]21 (some centres undefined) | active |
| CCCCCOc1ccc(/C=N/Nc2cc(C)nc3ccc(Cl)cc23)cc1 | active |
| CCNC(=O)Oc1ccc(/C(=C(\C)c2ccccc2)c2ccc(OCCN3CCCCC3)cc2)cc1 | inactive |
| C/C=C(\C)C(=O)NC1=CC[C@@]2(C)C(=CCC3C2CC[C@@]2(C)C3CC[C@@H]2C(C)N(C)C)C1=O (some centres undefined) | active |
| COc1ccc(/C=C2\Oc3cc(OCCCN4CCCCC4)ccc3C2=O)cc1OC | inactive |
| C/C(=N\NC(=O)CSc1nc2ccccc2c(=O)n1Cc1ccc(S(N)(=O)=O)cc1)c1ccc(F)cc1 | inactive |
| CC(=O)c1ccc(NS(=O)(=O)c2cccc(C(=O)Nc3ccc(Br)cc3)c2)cc1 | inactive |

* * *

- Tested on: DU-145 prostate
- Experimental details: NCI-60 one-dose screen, 48 h
- Conditions: 10 µM unless noted
Compounds without any hit were thinned out: in the full panel of roughly 83,000, 20% have a hit. Active and inactive are the calls of the source. The calls were made as follows: active = growth percent below 10; inactive = the rest.
Classes used: Yes = active, No = inactive

| Compound | Assigned class |
| --- | --- |
| CC(C)(C)[Si](C)(C)OC1[C@@H](O[Si](C)(C)C(C)(C)C)[C@@H](CNC(=O)NC(=O)CCl)O[C@H]1n1cnc2c(NC(=O)Nc3ccccc3)ncnc21 (some centres undefined) | Yes |
| Cn1cc(-c2csc(-c3c[nH]c4ccccc34)n2)c2ccnc(Cl)c21 | No |
| COc1cccc2c1c1nc3cc(C)c(C)cc3nc1n2CCN(C)C | No |
| CC(=O)O[C@H]1Cc2c([nH]c3ccccc23)[C@@H](c2ccc(Cl)cc2)N1C(=O)CCNC(C)(C)C | No |
| O=C1c2c(c3c4cccc(F)c4[nH]c3c3ccc4ccccc4c23)C(=O)N1O | No |
| [O-][n+]1c(Cl)cc(Cl)c2ccccc21 | No |
| C=C1C(=O)O[C@H]2[C@H]1CC/C(CNC(=O)/C=C/c1cccc(OC)c1)=C\CC[C@@]1(C)O[C@@H]21 | No |
| CCC(CC)NCC(C)(C)O | No |
| COc1cc2c(c(O)c1Br)C(=O)c1c(O)cc(C[C@H](C)O)cc1[C@H]2[C@H]1c2cc(C[C@H](C)O)cc(O)c2C(=O)c2c1cc(OC)c(Br)c2O | No |
| N#Cc1c(-c2ccccc2)nc2c(c(-c3ccccc3)nn2-c2ccccc2)c1-c1ccc(O)cc1 | No |
| CCN1Cc2nc3sc(C)c(C)c3c(=O)n2C=C1C | No |
| COc1ccc2c(c1)oc1c(C)c3c(c(C)c12)C(=O)N(CCN1CCOCC1)C3=O | No |
| COc1cc2nc(-c3ccc(Cl)cc3)cc(OCCCN3CCC(O)CC3)c2cc1OC | No |
| CCc1ccc(CNc2ccc(N3CCOCC3)c(C(=O)O)c2)cc1 | No |
| CC(=O)[C@@H]1CC[C@]2(CO)CC[C@]3(C)[C@H](CC[C@@H]4[C@@]5(C)CCCNC(C)(C)[C@@H]5CC[C@]43C)[C@@H]12 | No |
| COc1cc(NC(C)CCCNC(=O)CCC(=O)NCCCNCCCCCCCCNCCCNC(=O)CCC(=O)NCCCC(C)Nc2cc(OC)cc3cccnc23)c2ncccc2c1 (centres undefined) | No |
| O=Cc1ccc(-c2cn3ccnc3c(-c3ccc4ncn(Cc5ccccc5)c4c3)n2)cc1 | No |
| O=C1Nc2ccccc2/C1=C\c1c(-c2ccccc2)nc2ccccn12 | No |
| COc1ccc(NC(N)=NCCCOc2ccc(F)cc2)cc1 | No |
